Target: T1, human TSLP (human, UniProt Q969D9 29-159)
T1 construct: also called hTSLP; rhTSLP
Assay: SPR
ASSAY_READOUT: kon (M⁻¹ s⁻¹)
Quick note: give the figure in M⁻¹ s⁻¹, leave out the unit.

get_value(item= BDG38.077 (antibody, V domains shown, IgG1) VH: QMQLVESGGGVVQPGRSLTLSCAASGFAFRTYGMHWVRQAPGKGLEWVGVIWYDGSATHYADSVKGRFTITRDNSKNTLNLQMNSLRAEDTAVYYCVRAPQWYLTAEAFDLWGQGTMVTVSS VL: SYVLTQPPSVSVAPGETATITCGGALIGSRLVHWYQQKPGQAPVLVIYDDSDRPSRIPERFSGSNIGNTATLTISDVEAGDEADYYCQVWDHSSNTYVFGGGTKLTVL , readout=kon) returns 869000
